The following molecules are shown together with reported IC50 values.
Study system: GluA1o-γ8 (GRIA1o-CACNG8 fusion construct) (Homo sapiens (Human), UniProt P42261+Q8WXS5)
Sequence (P42261 other isoform, or with tags, fused parts or gaps): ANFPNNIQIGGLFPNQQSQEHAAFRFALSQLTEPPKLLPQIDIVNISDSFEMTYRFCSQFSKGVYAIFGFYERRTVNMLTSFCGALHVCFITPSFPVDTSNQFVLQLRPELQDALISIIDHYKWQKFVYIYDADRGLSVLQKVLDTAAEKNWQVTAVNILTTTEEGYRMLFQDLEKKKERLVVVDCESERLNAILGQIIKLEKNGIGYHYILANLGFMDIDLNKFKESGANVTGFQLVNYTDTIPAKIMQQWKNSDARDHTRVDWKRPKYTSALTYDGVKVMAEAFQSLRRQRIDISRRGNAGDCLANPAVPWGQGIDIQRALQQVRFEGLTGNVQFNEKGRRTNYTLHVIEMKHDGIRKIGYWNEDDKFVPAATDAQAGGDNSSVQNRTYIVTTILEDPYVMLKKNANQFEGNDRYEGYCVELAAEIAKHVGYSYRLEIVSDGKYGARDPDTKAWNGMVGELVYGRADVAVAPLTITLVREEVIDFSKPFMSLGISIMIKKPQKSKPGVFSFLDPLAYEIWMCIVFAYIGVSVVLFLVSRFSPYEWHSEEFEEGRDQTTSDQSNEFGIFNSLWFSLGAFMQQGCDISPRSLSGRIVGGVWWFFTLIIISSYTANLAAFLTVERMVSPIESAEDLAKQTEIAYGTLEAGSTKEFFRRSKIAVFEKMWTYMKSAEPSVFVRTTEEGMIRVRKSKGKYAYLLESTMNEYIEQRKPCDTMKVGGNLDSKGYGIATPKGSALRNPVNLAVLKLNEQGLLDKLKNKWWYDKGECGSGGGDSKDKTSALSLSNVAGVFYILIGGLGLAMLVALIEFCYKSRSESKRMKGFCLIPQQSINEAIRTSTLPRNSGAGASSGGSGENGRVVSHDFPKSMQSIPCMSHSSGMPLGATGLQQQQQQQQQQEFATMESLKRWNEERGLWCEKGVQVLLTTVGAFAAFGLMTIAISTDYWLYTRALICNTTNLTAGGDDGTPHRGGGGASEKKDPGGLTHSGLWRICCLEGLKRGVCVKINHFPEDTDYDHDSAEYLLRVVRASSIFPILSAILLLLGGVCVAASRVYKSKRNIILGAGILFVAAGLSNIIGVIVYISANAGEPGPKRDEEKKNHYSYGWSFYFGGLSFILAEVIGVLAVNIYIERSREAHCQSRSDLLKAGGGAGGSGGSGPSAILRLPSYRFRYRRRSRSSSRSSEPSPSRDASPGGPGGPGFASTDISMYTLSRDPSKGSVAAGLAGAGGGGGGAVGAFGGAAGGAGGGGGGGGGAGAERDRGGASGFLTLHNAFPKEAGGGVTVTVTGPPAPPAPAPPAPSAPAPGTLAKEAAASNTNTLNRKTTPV
Assay overview: Calcium flux assay (FLIPR), inhibition of TARP γ8 dependent AMPA receptor activity
Stated conditions: GluA1o-γ8 (GRIA1o-CACNG8 fusion) in HEK293 cells, calcium flux after 15 μM glutamate
Description: This assay was used to test compounds for their ability to inhibit TARP γ8 dependent AMPA receptor activity. The AMPA receptor is a non-selective cation channel activated by glutamate. […] Cell expressing the GRIA1o-CACNG8 fusion construct were grown in a monolayer in 96- or 384-well microtiter plates. […] Calcium flux following the addition of 15 μM glutamate was monitored using a Molecular Devices FLIPR Tetra. […]
Measurement label: IC50 (nM)

Molecule | Unit symbol | Reported measurement
O=C1Cc2cc(-n3c(C4CCCCC4)nc4ccc(C(F)(F)F)nc43)ccc2N1 | nM | 0.631
CCc1nc2ccc(C(F)(F)F)nc2n1-c1ccc2[nH]c(=O)oc2c1 | nM | 31.6
FC(F)(F)c1ccc2nc(-c3cccs3)n(-c3ccc4[nH]ncc4c3)c2n1 | nM | 3.98
CN(C)c1ccc2nc(-c3ccccc3)n(-c3ccc4[nH]c(=O)sc4c3)c2n1 | nM | 12.6
CC(C)c1cc2ccc(C(F)(F)F)nc2n1-c1ccc2c(c1)CC(=O)N2 | nM | 0.0126
Cc1ccc2cc(-c3ccccc3)n(-c3cnc4[nH]ccc4c3)c2n1 | nM | 1.26
O=c1[nH]c2ccc(-n3c(C4CCOCC4)nc4ccc(C(F)(F)F)nc43)cc2o1 | nM | 1000
Oc1ccc2nc(-c3ccccc3)n(-c3ccc4[nH]ncc4c3)c2n1 | nM | 25.1
CC(C)c1nc2cc(F)cnc2n1-c1cc(Cl)c2[nH]ncc2c1 | nM | 2.51
Cc1cc2cccnc2n1-c1cc(Cl)c2[nH]ncc2c1 | nM | 6.31
FC(F)c1ccc2nc(C(F)F)n(-c3cc(Cl)c4[nH]ncc4c3)c2n1 | nM | 0.0631
O=C1Cc2cc(-n3c(C(F)F)nc4ccc(C(F)(F)F)nc43)cc(Cl)c2N1 | nM | 0.2
CC(C)c1cc2ccc(C(F)(F)F)nc2n1-c1cc(F)c2c(c1)CC(=O)N2 | nM | 0.00794
COC(=O)c1cc(-n2c(C(F)(F)F)nc3ccc(C(F)(F)F)nc32)cc2cn[nH]c12 | nM | 126
CC[C@@H](C)c1nc2ccc(C(F)(F)F)nc2n1-c1cc(C)c2[nH]ncc2c1 (single isomer, unassigned) | nM | 0.126
Cc1cc2ccc(C(F)(F)F)nc2n1-c1cnc2c(c1)CC(=O)N2 | nM | 10
O=C1Cc2cc(-n3c(-c4ccccc4)nc4ccc(C(F)(F)F)nc43)ccc2N1 | nM | 0.398

###

Study system: GluA1o-γ8 (GRIA1o-CACNG8 fusion construct) (Homo sapiens (Human), UniProt P42261+Q8WXS5)
Assay overview: Calcium flux assay (FLIPR), inhibition of TARP γ8 dependent AMPA receptor activity
Stated conditions: GluA1o-γ8 (GRIA1o-CACNG8 fusion) in HEK293 cells, calcium flux after 15 μM glutamate

Compound string | Study system | Unit symbol | IC50
Cc1cc(-n2c(C)cc3ccc(C(F)(F)F)nc32)cc2cn[nH]c12 | GluA1o-γ8 (GRIA1o-CACNG8 fusion construct) (Homo sapiens (Human), UniProt P42261+Q8WXS5) | nM | 0.0501
CNC(=O)c1nc2ccc(C(F)(F)F)nc2n1-c1ccc2[nH]ncc2c1 | GluA1o-γ8 (GRIA1o-CACNG8 fusion construct) (Homo sapiens (Human), UniProt P42261+Q8WXS5) | nM | 794
FC(F)c1ccc2nc(-c3ccccc3)n(-c3ccc4[nH]ncc4c3)c2n1 | GluA1o-γ8 (GRIA1o-CACNG8 fusion construct) (Homo sapiens (Human), UniProt P42261+Q8WXS5) | nM | 0.0501
Cc1ccc2nc(C(C)(F)F)n(-c3ccc4[nH]c(=O)sc4c3)c2n1 | GluA1o-γ8 (GRIA1o-CACNG8 fusion construct) (Homo sapiens (Human), UniProt P42261+Q8WXS5) | nM | 1.58
Cc1cc(-n2c(C(F)(F)F)nc3ccc(C(F)(F)F)nc32)cc2sc(=O)[nH]c12 | GluA1o-γ8 (GRIA1o-CACNG8 fusion construct) (Homo sapiens (Human), UniProt P42261+Q8WXS5) | nM | 0.0631
FC(F)(F)c1ccc2nc(C3CCCC3)n(-c3ccc4[nH]ccc4c3)c2n1 | GluA1o-γ8 (GRIA1o-CACNG8 fusion construct) (Homo sapiens (Human), UniProt P42261+Q8WXS5) | nM | 12.6
Cc1cc(-n2c(C(C)(F)F)nc3ccc(C(F)(F)F)nc32)cc2cn[nH]c12 | GluA1o-γ8 (GRIA1o-CACNG8 fusion construct) (Homo sapiens (Human), UniProt P42261+Q8WXS5) | nM | 0.158
Cc1ccc2nc(C(C)(F)F)n(-c3ccc4[nH]ncc4c3)c2n1 | GluA1o-γ8 (GRIA1o-CACNG8 fusion construct) (Homo sapiens (Human), UniProt P42261+Q8WXS5) | nM | 39.8
Clc1ccc2nc(C3CCCC3)n(-c3ccc4[nH]ncc4c3)c2n1 | GluA1o-γ8 (GRIA1o-CACNG8 fusion construct) (Homo sapiens (Human), UniProt P42261+Q8WXS5) | nM | 10

###

The following molecules are shown together with reported IC50 values.
Study system: GluA1o-γ8 (GRIA1o-CACNG8 fusion construct) (Homo sapiens (Human), UniProt P42261+Q8WXS5)
Assay overview: Calcium flux assay (FLIPR), inhibition of TARP γ8 dependent AMPA receptor activity
Stated conditions: GluA1o-γ8 (GRIA1o-CACNG8 fusion) in HEK293 cells, calcium flux after 15 μM glutamate
Method: This assay was used to test compounds for their ability to inhibit TARP γ8 dependent AMPA receptor activity. The AMPA receptor is a non-selective cation channel activated by glutamate. […] Cell expressing the GRIA1o-CACNG8 fusion construct were grown in a monolayer in 96- or 384-well microtiter plates. […] Calcium flux following the addition of 15 μM glutamate was monitored using a Molecular Devices FLIPR Tetra. […]
Measurement label: IC50 (nM)

Molecule | Study system | Measurement label | Unit symbol | Reported measurement
Cc1ccc2cc(C(C)C)n(-c3ccc4c(c3)CC(=O)N4)c2n1 [Example 342] | GluA1o-γ8 (GRIA1o-CACNG8 fusion construct) (Homo sapiens (Human), UniProt P42261+Q8WXS5) | IC50 | nM | 0.251
Fc1ccc(-c2cc3cccnc3n2-c2ccc3c(c2)CCN3)cc1 [Example 344] | GluA1o-γ8 (GRIA1o-CACNG8 fusion construct) (Homo sapiens (Human), UniProt P42261+Q8WXS5) | IC50 | nM | 501
CCOCc1nc2ccc(C(F)(F)F)nc2n1-c1ccc2[nH]c(=O)oc2c1 [Example 162] | GluA1o-γ8 (GRIA1o-CACNG8 fusion construct) (Homo sapiens (Human), UniProt P42261+Q8WXS5) | IC50 | nM | 631
FC(F)c1ccc2nc(C(F)(F)F)n(-c3ccc4[nH]ncc4c3)c2n1 [Example 238] | GluA1o-γ8 (GRIA1o-CACNG8 fusion construct) (Homo sapiens (Human), UniProt P42261+Q8WXS5) | IC50 | nM | 0.398
Cc1ccc2nc(-c3ccccc3)n(-c3ccc4c(cnn4C(=O)OC(C)(C)C)c3)c2n1 [Example 12] | GluA1o-γ8 (GRIA1o-CACNG8 fusion construct) (Homo sapiens (Human), UniProt P42261+Q8WXS5) | IC50 | nM | 20
CC[C@H](C)c1nc2ccc(C(F)(F)F)nc2n1-c1cc(Cl)c2[nH]ncc2c1 (single isomer, unassigned) [Example 405] | GluA1o-γ8 (GRIA1o-CACNG8 fusion construct) (Homo sapiens (Human), UniProt P42261+Q8WXS5) | IC50 | nM | 0.0631
Cc1cc(-n2c(C(F)(F)F)nc3ccc(/C=C/CO)nc32)cc2cn[nH]c12 [Example 222] | GluA1o-γ8 (GRIA1o-CACNG8 fusion construct) (Homo sapiens (Human), UniProt P42261+Q8WXS5) | IC50 | nM | 31.6

###

Study system: GluA1o-γ8 (GRIA1o-CACNG8 fusion construct) (Homo sapiens (Human), UniProt P42261+Q8WXS5)
Assay overview: Calcium flux assay (FLIPR), inhibition of TARP γ8 dependent AMPA receptor activity
Stated conditions: GluA1o-γ8 (GRIA1o-CACNG8 fusion) in HEK293 cells, calcium flux after 15 μM glutamate
Measurement label: IC50 (pM)

Compound string | Reported measurement
Cc1ccc2cc(-c3ccc(F)cc3)n(-c3ccc4c(c3)CC(=O)N4)c2n1 | 398
FC(F)(F)c1ccc2nc(-c3ccco3)n(-c3ccc4[nH]ncc4c3)c2n1 | 5010
O=c1[nH]c2ccc(-n3c(C4CCCCC4)nc4ccc(C(F)(F)F)nc43)cc2s1 | 158
O=c1[nH]c2ccc(-n3c(-c4ccnc(F)c4)nc4ccc(C(F)(F)F)nc43)cc2s1 | 251
